# System: Setaria faberi (SETFA)
# Protocol summary: Glasshouse herbicide test, post-emergence application
# Assay type: in vivo
# Measurement setup: 250 g/h, evaluated after 13 days
Consider the following compounds; for each one, report its percentage damage caused to the plant, five point scale, SETFA.

*Q* Which percentage damage caused to the plant, five point scale, SETFA reading was recorded for the compound "CC#Cc1cc(C)c(C2C(=O)CC3(CC2=O)CN(C(=O)C2CC2)C3)c(OC)c1" ?
*A* 5 (5=80-100%)

*Q* Which percentage damage caused to the plant, five point scale, SETFA reading was recorded for the compound "COc1cc(-c2ccc(F)cc2)cc(C)c1C1C(=O)CC2(CC1=O)CN(C(C)=O)C2" ?
*A* 5 (5=80-100%)

*Q* Which percentage damage caused to the plant, five point scale, SETFA reading was recorded for the compound "CC#Cc1cc(Cl)c(C2C(=O)CC3(CC2=O)CN(C(C)=O)C3)c(OC)c1" ?
*A* 5 (5=80-100%)

*Q* Which percentage damage caused to the plant, five point scale, SETFA reading was recorded for the compound "CC#Cc1cc(C)c(C2C(=O)CC3(CC2=O)CN(C(=O)NC(=O)C(C)(C)C)C3)c(OC)c1" ?
*A* 5 (5=80-100%)

*Q* Which percentage damage caused to the plant, five point scale, SETFA reading was recorded for the compound "CC#Cc1cc(C)c(C2C(=O)CC3(CC2=O)CN(C(=O)NC(C)(C)C)C3)c(C)c1" ?
*A* 5 (5=80-100%)

*Q* Which percentage damage caused to the plant, five point scale, SETFA reading was recorded for the compound "CC#Cc1cc(Cl)c(C2C(=O)CC3(CC2=O)CN(C(=O)C2CC2)C3)c(OC)c1" ?
*A* 5 (5=80-100%)

*Q* Which percentage damage caused to the plant, five point scale, SETFA reading was recorded for the compound "CC#Cc1cc(C)c(C2C(=O)CC3(CC2=O)CN(S(=O)(=O)CC)C3)c(OC)c1" ?
*A* 5 (5=80-100%)

*Q* Which percentage damage caused to the plant, five point scale, SETFA reading was recorded for the compound "CC#Cc1cc(C)c(C2C(=O)CC3(CC2=O)CN(C(=O)NC(C)(C)C)C3)c(OC)c1" ?
*A* 5 (5=80-100%)

====

# System: Setaria faberi (SETFA)
# Protocol summary: Glasshouse herbicide test, post-emergence application
# Assay type: in vivo
# Measurement setup: 250 g/h, evaluated after 13 days
Measurement name: percentage damage caused to the plant, five point scale, SETFA

*Q* Which percentage damage caused to the plant, five point scale, SETFA reading was recorded for the compound CC#Cc1cc(C)c(C2C(=O)CC3(CC2=O)CN(C(=O)c2ccccc2)C3)c(C)c1 [Compound 1.003] ?
*A* 5 (5=80-100%)

*Q* Which percentage damage caused to the plant, five point scale, SETFA reading was recorded for the compound CC#Cc1cc(C)c(C2C(=O)CC3(CC2=O)CN(C(=O)COC)C3)c(OC)c1 [Compound 1.017] ?
*A* 5 (5=80-100%)

*Q* Which percentage damage caused to the plant, five point scale, SETFA reading was recorded for the compound CC#Cc1cc(Cl)c(C2C(=O)CC3(CC2=O)CN(C(=O)C(F)F)C3)c(OC)c1 [Compound 1.193] ?
*A* 5 (5=80-100%)
